Test system: motoneuron cells derived from iPS cells having SOD1-L144FVX mutation
Test Details: survival of motoneuron cells induced from ALS patient iPS cells (SOD1 mutation); note: test concentration or dose not given here
Test Settings: SOD1-L144FVX motoneuron cells contacted with medicament for 7 days; negative control DMSO
Where a name gives a salt, the structure may show the parent alone.
Class membership depends on MN index (motoneuron cell survival number ratio as compared to negative control) alone; the intervals are c1: < 8; c2: ≥ 8 and < 9; c3: ≥ 9

Consider the following illustrative entries.
>>> assigned_label("Cc1cc(Nc2cc(N3CCN(C)CC3)nc(Sc3ccc(NC(=O)C4CC4)cc3)n2)n[nH]1 [VX-680, tozasertib]")
"c3"
>>> assigned_label("C[C@@H](Oc1cc(-c2cnn(C3CCNCC3)c2)cnc1N)c1c(Cl)ccc(F)c1Cl [Crizotinib (PF- 2341066), Crizotinib]")
"c1"
>>> assigned_label("Cc1ccc(Nc2nccc(N(C)c3ccc4c(C)n(C)nc4c3)n2)cc1S(N)(=O)=O [Pazopanib Hydrochloride]")
"c3"
>>> assigned_label("O=C1Nc2ccccc2/C1=C1/Nc2ccccc2/C1=N\\O [Indirubin-3′-monoxime]")
"c1"
>>> assigned_label("CCCCOC(=O)c1ccc(N)cc1 [BUTAMBEN]")
"c1"

Hey, which category is O=C(c1ccc(/C=C/c2n[nH]c3ccccc23)cc1)N1CCNCC1 [KW 2449] in, do you know? c1

Hey, which category is CCN(CC)C(=O)c1ccc(Nc2nc(OCC3CCCCC3)c3nc[nH]c3n2)cc1 [Cdk2 Inhibitor IV, NU6140] in, do you know? c1

Hey, which category is Cn1cc(C2=C(c3cn(C4CCN(Cc5ccccn5)CC4)c4ccccc34)C(=O)NC2=O)c2ccccc21 [Enzastaurin] in, do you know? c3

###

System: motoneuron cells derived from iPS cells having SOD1-L144FVX mutation
Test Details: survival of motoneuron cells induced from ALS patient iPS cells (SOD1 mutation); note: test concentration or dose not given here
Test Settings: SOD1-L144FVX motoneuron cells contacted with medicament for 7 days; negative control DMSO
Structures can show the parent of a compound that is named as a salt.
Measurement Label: MN index (motoneuron cell survival number ratio as compared to negative control)
Enter a number only.

>>> reading("O=C1NC(=O)c2c1c(-c1ccccc1Cl)cc1[nH]c3ccc(O)cc3c21 [Weel Inhibitor]")
7.18
>>> reading("NCCNc1ncc(C(N)=O)c(Nc2cccc(C(F)(F)F)c2)n1 [Syk Inhibitor II]")
7.59

Requested read-out MN index (motoneuron cell survival number ratio as compared to negative control), target or system motoneuron cells derived from iPS cells having SOD1-L144FVX mutation, entry Cn1cnc(-c2cc3nccc(Oc4ccc(NC(=S)NC(=O)Cc5ccccc5)cc4F)c3s2)c1 [MGCD-265] 7.62

Requested read-out MN index (motoneuron cell survival number ratio as compared to negative control), target or system motoneuron cells derived from iPS cells having SOD1-L144FVX mutation, entry Cc1c(C)c2c(c(C)c1O)CC[C@@](C)(CCC[C@H](C)CCC[C@H](C)CCCC(C)C)O2 [alpha- TOCHOPHEROL, alpha-TOCHOPHEROL] 9.46

Requested read-out MN index (motoneuron cell survival number ratio as compared to negative control), target or system motoneuron cells derived from iPS cells having SOD1-L144FVX mutation, entry O=C(O)CCC(=O)c1ccc(-c2ccccc2)cc1 [FENBUFEN] 7.22

Requested read-out MN index (motoneuron cell survival number ratio as compared to negative control), target or system motoneuron cells derived from iPS cells having SOD1-L144FVX mutation, entry CNC(=O)c1ccccc1Sc1ccc2c(/C=C/c3ccccn3)n[nH]c2c1 [Axitinib] 7.35

Requested read-out MN index (motoneuron cell survival number ratio as compared to negative control), target or system motoneuron cells derived from iPS cells having SOD1-L144FVX mutation, entry COc1ccc2c(c1)/C(=C/c1c[nH]cn1)C(=O)N2 [SU9516] 8.39

Requested read-out MN index (motoneuron cell survival number ratio as compared to negative control), target or system motoneuron cells derived from iPS cells having SOD1-L144FVX mutation, entry CN1CCc2cccc3c2[C@H]1Cc1ccc(O)c(O)c1-3 [APOMORPHINE HYDROCHLORIDE, APOMORPHINE] 7.26
